- Test system: L1210 leukemia ip in BDF1 mice, survival T/C
- experiment.summary: NCI In Vivo Anticancer Drug Screen. Data for tumor model L1210 Leukemia (intraperitoneal) in B6D2F1 (BDF1) mice
- run.conditions: endpoint: mean survival time; dose: 50.0 mg/kg/injection; schedule: Q04DX003 (ip); vehicle: saline; higher = longer survival
Toxic doses and inconclusive results are not listed.
measured.endpoint: T/C

// below: answered molecules
[
  {
    "molecule": "CN1CCC(OC2c3ccccc3CCc3ccccc32)CC1",
    "T/C": "103 % of control"
  },
  {
    "molecule": "CCOC(C(=O)OC1CCN(C)CC1)(c1ccccc1)c1ccccc1",
    "T/C": "96 % of control"
  },
  {
    "molecule": "C=C1C(=O)N(C)CCC1C(CC)C(=O)OC (stereo not drawn)",
    "T/C": "93 % of control"
  },
  {
    "molecule": "Cc1cc([N+](=O)[O-])cc(C)c1OC(=O)c1ccc(N=C(N)N)cc1",
    "T/C": "105 % of control"
  },
  {
    "molecule": "CC1CN1P1(N2CC2C)=NP(N2CC2C)(N2CC2C)=NP(N2CC2C)(N2CC2C)=N1 (stereo not drawn)",
    "T/C": "112 % of control"
  },
  {
    "molecule": "CC1CN1N (stereo not drawn)",
    "T/C": "109 % of control"
  }
]

## Input # input molecule: NC1CCC(CC2CC3CCC2C3)CC1 (stereo not drawn) ; wanted: its T/C
## Output 96 % of control

## Input # input molecule: `CC1(C)CS(=O)(=O)CC1=O` ; wanted: its T/C
## Output 106 % of control

###

- Test system: L1210 leukemia ip in BDF1 mice, survival T/C
- experiment.summary: NCI In Vivo Anticancer Drug Screen. Data for tumor model L1210 Leukemia (intraperitoneal) in B6D2F1 (BDF1) mice
- run.conditions: endpoint: mean survival time; dose: 200.0 mg/kg/injection; schedule: Q04DX002 (ip); vehicle: Klucel (hydroxypropylcellulose) (HPC); higher = longer survival
Inconclusive results and toxic doses are left out.
measured.endpoint: T/C

[
  {
    "molecule": "CNC(=O)Nc1nc2ccccc2s1",
    "T/C": "94 % of control"
  },
  {
    "molecule": "COP(=O)(CN1C(=O)c2ccccc2C1=O)c1ccccc1 (stereo not given)",
    "T/C": "94 % of control"
  },
  {
    "molecule": "CN(Cc1ccccc1)C(=O)Nc1ccccc1",
    "T/C": "103 % of control"
  },
  {
    "molecule": "CCCCCCCCCCCC(=O)N/N=C(\\c1ccccc1)c1ccc(Cl)cc1",
    "T/C": "103 % of control"
  },
  {
    "molecule": "O=C1Nc2ccccc2C2=C3CCCCC3=NNC12 (stereo not given)",
    "T/C": "97 % of control"
  },
  {
    "molecule": "COC1OC(COC(c2ccccc2)(c2ccccc2)c2ccccc2)C(OC)C(OC(C)=O)C1OC(C)=O (stereo not given)",
    "T/C": "102 % of control"
  }
]

## Input # input molecule: CCOC(=O)CC(C)(C)CC(=O)C1CNC2=C(C1)C(=O)CC(C)(C)C2 (stereo not given) ; wanted: its T/C
## Output 92 % of control

## Input # input molecule: C#CCC1CCCC/C1=N\Nc1ccc([N+](=O)[O-])cc1[N+](=O)[O-] (stereo not given) ; wanted: its T/C
## Output 103 % of control

## Input # input molecule: `Nc1nc(-c2cc(Br)ccc2N=NN2CCCCC2)nc2ccc(Br)cc12` ; wanted: its T/C
## Output 89 % of control

## Input # input molecule: `CCCCCCCS(=O)(=O)c1nc2ccccc2[nH]1` ; wanted: its T/C
## Output 101 % of control

###

- System: L1210 leukemia ip in BDF1 mice, survival T/C
- experiment.summary: NCI In Vivo Anticancer Drug Screen. Data for tumor model L1210 Leukemia (intraperitoneal) in B6D2F1 (BDF1) mice
- run.conditions: endpoint: mean survival time; dose: 100.0 mg/kg/injection; schedule: Q01DX009 (ip); vehicle: saline with Tween-80; higher = longer survival
Toxic doses and inconclusive results are not listed.
Measured T/C accompanies every entry in the list below.

// below: answered compounds
[
  {
    "compound": "COC(=O)C1OC1(C)c1ccc(C)cc1 (centres undefined)",
    "target": "L1210 leukemia ip in BDF1 mice, survival T/C",
    "T/C": "92 % of control"
  },
  {
    "compound": "FC(F)(F)c1nc2nc(Cl)c(Cl)nc2n1CCCN1CCOCC1",
    "target": "L1210 leukemia ip in BDF1 mice, survival T/C",
    "T/C": "117 % of control"
  },
  {
    "compound": "N#CN(Cc1ccc(Cl)cc1Cl)C(=O)OCOc1ccc(Cl)cc1",
    "target": "L1210 leukemia ip in BDF1 mice, survival T/C",
    "T/C": "91 % of control"
  },
  {
    "compound": "CC1(C)CCOc2ccccc21",
    "target": "L1210 leukemia ip in BDF1 mice, survival T/C",
    "T/C": "94 % of control"
  },
  {
    "compound": "Cc1cc(=O)n(C)c2ccccc12",
    "target": "L1210 leukemia ip in BDF1 mice, survival T/C",
    "T/C": "101 % of control"
  },
  {
    "compound": "O=C(CSc1cc(-c2ccc(Cl)cc2)s[s+]1)c1ccccc1",
    "target": "L1210 leukemia ip in BDF1 mice, survival T/C",
    "T/C": "100 % of control"
  },
  {
    "compound": "CC(=O)OC1CC2C=CC1C2 (centres undefined)",
    "target": "L1210 leukemia ip in BDF1 mice, survival T/C",
    "T/C": "93 % of control"
  },
  {
    "compound": "COc1ccc(Cl)cc1NC(=O)N/N=C(\\C)CC(C)C",
    "target": "L1210 leukemia ip in BDF1 mice, survival T/C",
    "T/C": "91 % of control"
  },
  {
    "compound": "O=C(O)CCN1C(=O)c2ccccc2C1=O",
    "target": "L1210 leukemia ip in BDF1 mice, survival T/C",
    "T/C": "96 % of control"
  },
  {
    "compound": "CN(C)c1ccc(/C=N/NC(=O)CNC(=O)Nc2nccs2)c(Cl)c1",
    "target": "L1210 leukemia ip in BDF1 mice, survival T/C",
    "T/C": "89 % of control"
  }
]

## Input # input compound: `Cc1cc(C)c(NC(=S)NC(=O)c2ccco2)c(C)c1` ; wanted: its T/C
## Output 97 % of control

## Input # input compound: `O=C1c2ccccc2C(=O)N1CCCn1c2ccccc2c2cnccc21` ; wanted: its T/C
## Output 101 % of control

## Input # input compound: `C=CCNC(=O)Oc1cccc(NC(=O)CC)c1` ; wanted: its T/C
## Output 94 % of control

## Input # input compound: `O=CN/N=C/c1ccc2c(c1)CCC2` ; wanted: its T/C
## Output 97 % of control

## Input # input compound: `c1ccc(CNCCCNCc2ccccn2)nc1` ; wanted: its T/C
## Output 98 % of control

## Input # input compound: `C=CCNc1n[nH]c(=S)s1` ; wanted: its T/C
## Output 101 % of control

## Input # input compound: `CCCNC(=O)Nc1cccc(C(F)(F)F)c1` ; wanted: its T/C
## Output 100 % of control

## Input # input compound: `Cc1ccc(S(=O)(=O)Cl)cc1C(=O)O` ; wanted: its T/C
## Output 96 % of control

## Input # input compound: `CC(=O)N(C(C)=O)c1ccc(N=Nc2ccccc2C)cc1C` ; wanted: its T/C
## Output 86 % of control

## Input # input compound: `COC(=O)/C=C(\C(=O)OC)N1CCCCC1` ; wanted: its T/C
## Output 107 % of control

## Input # input compound: `O=C(OC/C=C/c1ccccc1)c1ccccc1` ; wanted: its T/C
## Output 91 % of control

## Input # input compound: `CCCC(=O)Oc1ccc(/C=N/NC(N)=S)nc1` ; wanted: its T/C
## Output 119 % of control

## Input # input compound: CCCCNC(C)(C)C(SSS(=O)(=O)O)c1ccc(Cl)cc1 (centres undefined) ; wanted: its T/C
## Output 96 % of control

## Input # input compound: COC(C(OC)N1CCOCC1)N1CCOCC1 (centres undefined) ; wanted: its T/C
## Output 95 % of control

###

- System: L1210 leukemia ip in BDF1 mice, survival T/C
- experiment.summary: NCI In Vivo Anticancer Drug Screen. Data for tumor model L1210 Leukemia (intraperitoneal) in B6D2F1 (BDF1) mice
- run.conditions: endpoint: mean survival time; dose: 200.0 mg/kg/injection; schedule: Q01DX009 (ip); vehicle: saline with Tween-80; higher = longer survival
Toxic doses and inconclusive results are not listed.
Measured T/C accompanies every entry in the list below.

// below: answered compounds
[
  {
    "compound": "C=CCNC(=O)Oc1cccc(NC(=O)CC)c1",
    "target": "L1210 leukemia ip in BDF1 mice, survival T/C",
    "measured.endpoint": "T/C",
    "observed.measurement": "91 % of control"
  },
  {
    "compound": "CCCCN(CC)/N=N/c1nc[nH]c1C(N)=O",
    "target": "L1210 leukemia ip in BDF1 mice, survival T/C",
    "measured.endpoint": "T/C",
    "observed.measurement": "124 % of control"
  },
  {
    "compound": "O=c1[nH]n(-c2ccccc2)c(=O)cc1Cl",
    "target": "L1210 leukemia ip in BDF1 mice, survival T/C",
    "measured.endpoint": "T/C",
    "observed.measurement": "86 % of control"
  },
  {
    "compound": "Oc1ccc(C2N(c3ccccc3)CCN2c2ccccc2)cc1",
    "target": "L1210 leukemia ip in BDF1 mice, survival T/C",
    "measured.endpoint": "T/C",
    "observed.measurement": "103 % of control"
  },
  {
    "compound": "COc1cc(OC)cc(C2N(Cc3ccc(OC)c(OC)c3)CCN2Cc2ccc(OC)c(OC)c2)c1",
    "target": "L1210 leukemia ip in BDF1 mice, survival T/C",
    "measured.endpoint": "T/C",
    "observed.measurement": "108 % of control"
  }
]

## Input # input compound: `Cc1cc(OC(=O)Nc2ccc(Cl)cc2C(F)(F)F)c(C)cc1Cl` ; wanted: its T/C
## Output 109 % of control

## Input # input compound: `O=C(O)CCCOc1ccc(Cl)cc1Cl` ; wanted: its T/C
## Output 98 % of control

meta.source: PubChem BioAssay AID248
